Test system: HCT-116 cells
Assay: Cancer cells viability by MTT assay
Conditions: 100 ug/mL, 48 hrs, HCT-116
Experimental Endpoint: cancer cell viability (% of control)

* OC(COCCCCOCC(O)Cn1ccnc1)Cn1ccnc1 (centres unmarked) | 25%
* OC(COCCCCOCC(O)Cn1cncn1)Cn1cncn1 (centres unmarked) | 75%
* OC(CNc1nnn[nH]1)COCCCCOCC(O)CNc1nnn[nH]1 (centres unmarked) | 25%
* OC(CNc1ncn[nH]1)COCCCCOCC(O)CNc1ncn[nH]1 (centres unmarked) | 28.12%
* O=P(O)(O)OCC(O)COCCCCOCC(O)COP(=O)(O)O (centres unmarked) | 85.31%

----------
Each entry below carries its recorded cancer cell viability (% of control).
System: HCT-116 cells
Experiment: Cancer cells viability by MTT assay
Conditions: 750 ug/mL, 48 hrs, HCT-116
Experimental Endpoint: cancer cell viability (% of control) (%)

- O=P(O)(O)OCC(O)COCCCCOCC(O)COP(=O)(O)O (centres unmarked): 53.12
- OC(CNc1nnn[nH]1)COCCCCOCC(O)CNc1nnn[nH]1 (centres unmarked): 18.75
- OC(COCCCCOCC(O)Cn1ccnc1)Cn1ccnc1 (centres unmarked): 18.75
- OC(CNc1ncn[nH]1)COCCCCOCC(O)CNc1ncn[nH]1 (centres unmarked): 24.68
- OC(COCCCCOCC(O)Cn1cncn1)Cn1cncn1 (centres unmarked): 21.87
